Numbers sourced from patent US6794386B2.

Target: VLA-4 (Homo sapiens, UniProt P05556+P13612)
Construct: host or cells: Jurkat clone E6-1
Sequence (P13612 34-1032): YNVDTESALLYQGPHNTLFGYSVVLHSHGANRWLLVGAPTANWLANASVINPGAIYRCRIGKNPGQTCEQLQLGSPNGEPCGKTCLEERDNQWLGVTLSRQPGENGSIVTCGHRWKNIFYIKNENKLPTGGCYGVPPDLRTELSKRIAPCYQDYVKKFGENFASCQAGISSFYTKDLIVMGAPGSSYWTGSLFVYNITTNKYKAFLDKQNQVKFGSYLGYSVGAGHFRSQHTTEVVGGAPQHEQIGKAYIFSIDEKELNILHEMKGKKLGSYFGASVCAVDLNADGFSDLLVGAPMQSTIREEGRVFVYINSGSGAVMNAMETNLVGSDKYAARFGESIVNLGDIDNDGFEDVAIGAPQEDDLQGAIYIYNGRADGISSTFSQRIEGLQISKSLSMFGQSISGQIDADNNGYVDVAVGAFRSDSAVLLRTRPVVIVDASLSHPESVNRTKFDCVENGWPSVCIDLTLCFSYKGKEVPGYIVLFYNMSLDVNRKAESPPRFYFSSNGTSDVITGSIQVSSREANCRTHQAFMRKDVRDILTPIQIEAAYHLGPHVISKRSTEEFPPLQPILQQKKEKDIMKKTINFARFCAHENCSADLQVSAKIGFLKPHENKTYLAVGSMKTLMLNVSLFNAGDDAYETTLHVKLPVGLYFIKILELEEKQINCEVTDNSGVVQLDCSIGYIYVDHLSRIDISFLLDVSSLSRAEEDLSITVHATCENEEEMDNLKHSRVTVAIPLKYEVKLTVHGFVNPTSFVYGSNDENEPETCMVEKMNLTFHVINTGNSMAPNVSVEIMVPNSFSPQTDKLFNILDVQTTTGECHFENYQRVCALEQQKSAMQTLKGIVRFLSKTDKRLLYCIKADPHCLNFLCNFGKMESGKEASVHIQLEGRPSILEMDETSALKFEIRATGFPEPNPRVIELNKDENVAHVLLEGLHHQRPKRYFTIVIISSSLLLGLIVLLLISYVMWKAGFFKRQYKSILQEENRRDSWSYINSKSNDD
Sequence (P05556 21-798): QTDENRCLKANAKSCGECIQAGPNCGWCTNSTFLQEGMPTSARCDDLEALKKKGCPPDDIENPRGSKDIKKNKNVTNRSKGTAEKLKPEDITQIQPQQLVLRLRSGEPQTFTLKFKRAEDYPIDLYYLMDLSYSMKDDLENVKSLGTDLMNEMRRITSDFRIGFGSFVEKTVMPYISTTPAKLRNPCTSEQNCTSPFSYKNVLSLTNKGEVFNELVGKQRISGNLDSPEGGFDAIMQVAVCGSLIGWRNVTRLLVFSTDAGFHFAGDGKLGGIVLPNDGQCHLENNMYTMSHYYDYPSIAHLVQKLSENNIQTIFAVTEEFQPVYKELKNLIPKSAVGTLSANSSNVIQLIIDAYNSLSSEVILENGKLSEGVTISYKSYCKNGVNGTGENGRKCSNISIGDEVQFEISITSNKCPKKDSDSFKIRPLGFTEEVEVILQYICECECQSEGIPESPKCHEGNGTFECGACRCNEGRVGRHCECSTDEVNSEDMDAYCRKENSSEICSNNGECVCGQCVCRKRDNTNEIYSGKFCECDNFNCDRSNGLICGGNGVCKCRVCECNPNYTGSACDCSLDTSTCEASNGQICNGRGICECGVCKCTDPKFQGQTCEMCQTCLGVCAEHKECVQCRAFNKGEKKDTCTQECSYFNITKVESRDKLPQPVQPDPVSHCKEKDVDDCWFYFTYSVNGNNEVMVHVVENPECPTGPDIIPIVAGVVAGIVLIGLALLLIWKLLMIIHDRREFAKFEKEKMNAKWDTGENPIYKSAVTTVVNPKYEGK
Assay: Adhesion of Jurkat cells to immobilized VCAM-1 (domains 1-3)
Type: cell-based
Conditions: adhesion of CFSE-labeled Jurkat cells to recombinant human VCAM-1 (domains 1-3) coated plates; compounds as yielded by solid phase synthesis, purity about 40-90%; read-out: IC50
Experimental: In Vitro Assay: Adhesion of Jurkat Cells to Immobilized VCAM-1 (Domains 1-3). Preparation of Fluorescence Labeled Jurkat Cells: […] Complementary DNA (cDNA) encoding 7-domain form of VCAM-1 (GenBank accession #M60335) was obtained using Rapid-Screen™ cDNA library panels (OriGene Technologies, Inc) at Takara Gene Analysis Center (Shiga, Japan). […] The recombinant virus was amplified by infection to High-Five™ insect cells for 5-6 days, and virus titer was determined by plaque assay. […]
measuredAttribute: IC50

Below, each entry is followed by its recorded IC50 result.
{"columns": ["compound", "measuredAttribute", "result"],
 "data": [
  ["O=C(N[C@@H](Cc1ccc(NC(=O)N2CCc3ccccc3C2)cc1)C(=O)O)C1CCCN(C(=O)Nc2ccccc2)C1 (stereo partly drawn)", "IC50", "500 to 2000 nM"],
  ["O=C(N[C@@H](Cc1ccc(NC(=O)N2CCCCC2)cc1)C(=O)O)C1CCCN(S(=O)(=O)c2ccc3ccccc3c2)C1 (stereo partly drawn)", "IC50", "≤ 500 nM"],
  ["O=C(N[C@@H](Cc1ccc(NC(=O)N2CCN(c3ccccc3)CC2)cc1)C(=O)O)C1CCCN(c2ncnc(NC3CCN(Cc4ccccc4)CC3)c2F)C1 (stereo partly drawn)", "IC50", "500 to 2000 nM"]
]}

Prompt: What measured IC50 goes with CN1CCN(C(=O)Nc2ccc(C[C@H](NC(=O)C3CCCN(C(=O)Nc4ccccc4F)C3)C(=O)O)cc2)CC1 (stereo partly drawn) ?
Completion: 500 to 2000 nM

Prompt: What measured IC50 goes with O=C(N[C@@H](Cc1ccc(NC(=O)N2CCOCC2)cc1)C(=O)O)C1CCCN(C(=O)Cc2cccs2)C1 (stereo partly drawn) ?
Completion: ≤ 500 nM

Prompt: What measured IC50 goes with O=C(N[C@@H](Cc1ccc(-c2ccc(Cl)cc2Cl)cc1)C(=O)O)C1CCCN(S(=O)(=O)c2c(Cl)cccc2Cl)C1 (stereo partly drawn) ?
Completion: 2000 to 10000 nM
